- Experimental Protocol: Volume of distribution at steady state in mouse
- Assay type: ADME, organism-based
- Test Context: in vivo, read-out: Vdss
Reported Metric: Vd

1. O=C(CCc1ccc2cc(O)ccc2c1)Nc1ccccc1C(=O)O | 0.7 L/kg

* * *

- Experimental Protocol: Cmax in mouse
- Type: ADME, organism-based
- Test Context: in vivo
Reported Metric: Cmax

1. O=C(CCc1ccc2cc(O)ccc2c1)Nc1ccccc1C(=O)O | 6.6 µM
